- Organism: Rattus norvegicus
- MEASUREMENT DESCRIPTION: DrugMatrix - Regimen: Daily Repeat
- Format: toxicity, organism-based, Sprague-Dawley
- Parameters: regimen Daily Repeat, gender Male, age 6-8 weeks
- CONDITIONS USED: in vivo, po, 2000 mg/kg, 72 h, tissue Plasma, route oral GAVAGE, dose level High, time 3 day, vehicle .5 % CMC
MEASUREMENT NAME: POTASSIUM (MEQ/L)

| COMPOUND | MEASUREMENT NAME | REPORTED VALUE |
| --- | --- | --- |
| CN/C(=N/CCSCc1nc[nH]c1C)NC#N | POTASSIUM | 7.13 |
| COc1cc2nc(N3CCN(C(=O)c4ccco4)CC3)nc(N)c2cc1OC | POTASSIUM | 5.14 |
| CC1(C)S[C@@H]2[C@H](NC(=O)[C@H](N)c3ccccc3)C(=O)N2[C@H]1C(=O)O | POTASSIUM | 6.92 |
| NC1CCN(c2nc3c(cc2F)c(=O)c(C(=O)O)cn3-c2ccc(F)cc2F)C1 (stereo unspecified) | POTASSIUM | 7.4 |
| CN(C/C=C/C#CC(C)(C)C)Cc1cccc2ccccc12 | POTASSIUM | 6.3 |
| O=C1Nc2ccc(Cl)cc2C(c2ccccc2Cl)=NC1O (stereo unspecified) | POTASSIUM | 5.79 |

----------
- Species on record: Rattus norvegicus
- MEASUREMENT DESCRIPTION: DrugMatrix - Regimen: Daily Repeat
- Format: toxicity, organism-based, Sprague-Dawley
- Set-up: regimen Daily Repeat, gender Male, age 6-8 weeks
- CONDITIONS USED: in vivo, po, 2000 mg/kg, 120 h, tissue Blood, route oral GAVAGE, dose level High, time 5 day, vehicle .5 % CMC
MEASUREMENT NAME: ABSOLUTE SEGMENTED NEUTROPHIL (CELLS/uL)

| MOLECULE | UNIT ABBREV | REPORTED VALUE |
| --- | --- | --- |
| CN/C(=N/CCSCc1nc[nH]c1C)NC#N [CIMETIDINE] | CELLS/uL | 1118 |
| CC1(C)S[C@@H]2[C@H](NC(=O)[C@H](N)c3ccccc3)C(=O)N2[C@H]1C(=O)O [AMPICILLIN] | CELLS/uL | 1413 |
| O=C1Nc2ccc(Cl)cc2C(c2ccccc2Cl)=NC1O (centres undefined) [LORAZEPAM] | CELLS/uL | 903.5 |
| COc1cc2nc(N3CCN(C(=O)c4ccco4)CC3)nc(N)c2cc1OC [PRAZOSIN] | CELLS/uL | 630.33 |

----------
- Species on record: Rattus norvegicus
- MEASUREMENT DESCRIPTION: DrugMatrix - Regimen: Daily Repeat
- Type: toxicity, organism-based, Sprague-Dawley
- Parameters: regimen Daily Repeat, gender Male, age 6-8 weeks
- CONDITIONS USED: in vivo, po, 50 mg/kg, 72 h, tissue Blood, route oral GAVAGE, dose level Low, time 3 day, vehicle .5 % CMC
MEASUREMENT NAME: NEUTROPHIL (%)

| COMPOUND | UNIT ABBREV | REPORTED VALUE |
| --- | --- | --- |
| CN(C)[C@@H]1C(O)=C(C(N)=O)C(=O)[C@@]2(O)C(O)=C3C(=O)c4c(O)ccc(Cl)c4[C@@](C)(O)[C@H]3C[C@@H]12 [CHLORTETRACYCLINE] | % | 7 |
| Cc1cccc(C)c1OCC(C)N (centres undefined) [MEXILETINE] | % | 5.67 |
| NC1CCN(c2nc3c(cc2F)c(=O)c(C(=O)O)cn3-c2ccc(F)cc2F)C1 (centres undefined) [TOSUFLOXACIN] | % | 10 |
| CCN1CCC[C@H]1CNC(=O)c1cc(S(N)(=O)=O)ccc1OC [LEVOSULPIRIDE] | % | 11 |

Reference for the values: ChEMBL document CHEMBL3885881
